Where a SMILES comes first, the peptide text is derived from it.
Each record here notes measured logP.
Lab note: jot down the number only; don't add units.

See these solved cases before continuing.
>>> experimental_result("O=C1C(O)N=C(c2ccccc2)c2cc([N+](=O)[O-])ccc2N1CCO (stereo unspecified)")
0.72
>>> experimental_result("Cc1cccc(Cc2c[nH]cn2)c1")
2.39
>>> experimental_result("CS(=O)(=O)CC(=O)C=NO")
-0.69

Query: logP; subject: CC1(C(Cl)Cl)C2CC(Cl)(Cl)C1(C(Cl)Cl)CC2(Cl)Cl (stereo unspecified) 5.9

Query: logP; subject: O=C(O)C(Cc1ccccc1)NC(=O)C1CCCN1 (stereo not drawn) (H-Pro-Phe-OH; configuration not given here) -2.07
